Origin of measurements: patent US6727237B2

// values below are reported % Inhibition
# Tested on: Staphylococcus epidermitis
# measurement.protocol: Bacterial growth inhibition screen in LB media (absorbance 595 nm), percent inhibition
# experimental.parameters: S. epidermitis; concentration screened 10 uM
endpoint: % Inhibition

{"molecule": "Cc1ccc2[nH]c(CCCC[n+]3cccc4ccccc43)cc2c1 [Compound 403]", "endpoint": "% Inhibition", "result": "4.87%"}
{"molecule": "COC(=O)c1ccc2[nH]c(CCCCCCC[n+]3ccc4ccccc4c3)cc2c1 [Compound 598]", "endpoint": "% Inhibition", "result": "8.86%"}
{"molecule": "O=C(OCCCCCCCn1ccc2cc([N+](=O)[O-])ccc21)c1cnc2ccccc2c1 [Compound 833]", "endpoint": "% Inhibition", "result": "98.00%"}
{"molecule": "CC(=O)c1ccc2[nH]c(CCCCCCCOC(=O)C(c3ccccc3)c3ccccc3)cc2c1 [Compound 670]", "endpoint": "% Inhibition", "result": "5.59%"}
{"molecule": "CC(C)c1ccc2[nH]c(CCCCCCCOC(=O)c3ccccc3-c3ccccc3)cc2c1 [Compound 631]", "endpoint": "% Inhibition", "result": "12.19%"}
{"molecule": "CC(C)c1ccc2[nH]c(CCC[n+]3cccc4ccccc43)cc2c1 [Compound 426]", "endpoint": "% Inhibition", "result": "16.57%"}
{"molecule": "COC(=O)c1ccc2[nH]c(CCCCC[n+]3cccc4ccccc43)cc2c1 [Compound 488]", "endpoint": "% Inhibition", "result": "2.72%"}
{"molecule": "C[n+]1cc(C(=O)OCCCCCCCCn2ccc3cc(OCc4ccccc4)ccc32)cc2ccccc21 [Compound 829]", "endpoint": "% Inhibition", "result": "98.64%"}
{"molecule": "COc1ccc2[nH]c(CCCC[n+]3ccc4ccccc4c3)cc2c1 [Compound 589]", "endpoint": "% Inhibition", "result": "29.35%"}
{"molecule": "COC(=O)C=Cc1cn(CCCCCCC[n+]2ccccc2)c2ccccc12 [Compound 261]", "endpoint": "% Inhibition", "result": "92.51%"}
{"molecule": "O=C(c1ccccc1)c1ccc2[nH]c(CCC[n+]3cccc4ccccc43)cc2c1 [Compound 462]", "endpoint": "% Inhibition", "result": "3.13%"}
{"molecule": "FC(F)(F)c1ccc2cc(CCC[n+]3cccc4ccccc43)[nH]c2c1 [Compound 396]", "endpoint": "% Inhibition", "result": "1.53%"}
{"molecule": "COc1ccc2[nH]c(CCCCC[n+]3cccc4ccccc43)cc2c1 [Compound 482]", "endpoint": "% Inhibition", "result": "4.39%"}
